Entry source: patent US20070174009A1

System: NFAT
Test: siRNA transfection array, NFAT EGFP reporter, HepG2 cells
Format: cell-based, human
Conditions: normalized EGFP intensity vs Scramble negative control
Description: Functional reporters for transcriptional factors and fibronectin described in Table 2 were used to synthesize siRNAs for the transcriptional factors including SRE, TRE, E2F, p53, Rb, Actin, NFAT, NFkB, STAT3, RARE, PMA, ISRA, HSE, Myc, AP1, GAS, ERE, GRE and CRE. siRNA for EGFP was used as a control. Each siRNA was evaluated as to whether or not it knocks out a target transcription factor. Scrambled RNAs were used as negative controls, and their ratios were evaluated. […]
Readout label: NFAT, normalized matrix

Q) Reported NFAT, normalized matrix for SRF siRNA: siRNA SEQ ID NO: 70 (Dharmacon), targets human serum response factor J03161 (CAGCACCUAGCACCUCUAC; chemistry not given here) : what is it?
A) 1
